- assay-system: T1, TNFR1 (Homo sapiens, UniProt P19438)
- T1 chain: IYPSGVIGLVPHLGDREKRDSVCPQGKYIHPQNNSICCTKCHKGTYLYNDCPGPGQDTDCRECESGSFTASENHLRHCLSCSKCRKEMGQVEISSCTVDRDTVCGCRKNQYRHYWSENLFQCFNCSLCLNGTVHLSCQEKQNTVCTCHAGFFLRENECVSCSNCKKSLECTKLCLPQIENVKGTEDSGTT
- method-notes: yeast display SC50
experimental-endpoint: apparent Kd (screen) (pM)

• R61M (designed binder) MTLQELLREEALRRAEAEAFRYALELLAEKFPEQKEYLLDLAEEIESQIRSLSGVDVEDVMKFLDKEWAWVKELLAEHPAELAEVEAARAARLAELRAEVEAKVAA = 593
• P32D (designed binder) MTLQELLREEALRRAEAEAFRYALELLAEKFDEQKEYLLDLAEEIESQIRSLSGVDVEDVRKFLDKEWAWVKELLAEHPAELAEVEAARAARLAELRAEVEAKVAA = 869

[a] L75H (designed binder) MTLQELLREEALRRAEAEAFRYALELLAEKFPEQKEYLLDLAEEIESQIRSLSGVDVEDVRKFLDKEWAWVKELHAEHPAELAEVEAARAARLAELRAEVEAKVAA
[b] I49E (designed binder) MTLQELLREEALRRAEAEAFRYALELLAEKFPEQKEYLLDLAEEIESQERSLSGVDVEDVRKFLDKEWAWVKELLAEHPAELAEVEAARAARLAELRAEVEAKVAA
Field: lower recorded apparent Kd (screen) (choose a or b ) // output: label of the selected item
a
